Biological target: Serine/threonine-protein kinase Nek2 (Homo sapiens)
Sequence (whole entry): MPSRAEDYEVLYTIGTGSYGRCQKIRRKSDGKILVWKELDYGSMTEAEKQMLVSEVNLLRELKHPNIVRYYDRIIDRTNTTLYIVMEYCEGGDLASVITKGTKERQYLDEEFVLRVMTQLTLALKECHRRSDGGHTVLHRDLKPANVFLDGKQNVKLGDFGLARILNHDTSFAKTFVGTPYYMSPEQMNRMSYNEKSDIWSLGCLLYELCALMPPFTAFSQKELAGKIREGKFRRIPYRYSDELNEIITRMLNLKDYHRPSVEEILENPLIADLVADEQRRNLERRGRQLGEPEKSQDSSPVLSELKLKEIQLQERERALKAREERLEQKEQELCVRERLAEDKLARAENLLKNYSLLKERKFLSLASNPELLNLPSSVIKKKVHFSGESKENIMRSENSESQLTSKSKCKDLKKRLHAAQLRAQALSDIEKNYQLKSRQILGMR
Conditions: at 10 µM
Description: Millipore: Percentage of residual kinase activity of NEK2 at 10uM relative to control. Control inhibitor: Phosphoric acid* at 0.3uM. Buffer: 8 mM MOPS pH 7.0, 0.2 mM EDTA
Consider the following compounds; for each one, report its residual activity.
Record the value in %, omitting the unit from your answer.

## Task Quote residual activity reported for `N#C/C(=C(\N)Sc1ccc(N)cc1)c1ccccc1C(F)(F)F` please.
## Result 91

## Task Quote residual activity reported for `Cc1cc(Nc2nc(-c3ccccc3)nc3ccccc23)n[nH]1` please.
## Result 66

## Task Quote residual activity reported for `CCOc1cc2ncnc(Nc3cccc(Br)c3)c2cc1OCC` please.
## Result 93

## Task Quote residual activity reported for `COc1cc2ncnc(Nc3ccc(NC(=O)c4ccccc4)cc3)c2cc1OC` please.
## Result 95

## Task Quote residual activity reported for `O=C1NC(=O)c2cc(Nc3ccc(F)cc3)c(Nc3ccc(F)cc3)cc21` please.
## Result 94

## Task Quote residual activity reported for `Oc1ccc(Nc2nc(-c3ccc(Cl)cc3)cs2)cc1` please.
## Result 97

## Task Quote residual activity reported for `Nc1nc(Nc2ccc(S(N)(=O)=O)cc2)nn1C(=S)Nc1c(F)cccc1F` please.
## Result 71

## Task Quote residual activity reported for `COc1cc2ncc(-c3ccccc3)nc2cc1OC` please.
## Result 100

## Task Quote residual activity reported for `COc1cc2ncnc(Nc3ccc(O)c(Br)c3)c2cc1OC` please.
## Result 83

## Task Quote residual activity reported for `c1ccc2c(-c3ccncc3)c[nH]c2c1` please.
## Result 88

## Task Quote residual activity reported for `CN(C)c1ccc(/C=C2\C(=O)Nc3ccccc32)cc1` please.
## Result 113

## Task Quote residual activity reported for `CCN(CC)C(=O)c1ccc(Nc2nc(OCC3CCCCC3)c3nc[nH]c3n2)cc1` please.
## Result 11

## Task Quote residual activity reported for `c1ccc(-c2n[nH]cc2-c2ccnc3ccccc23)nc1` please.
## Result 101

## Task Quote residual activity reported for `O=C1NC(=O)/C(=C/c2ccc3c(c2)OC(F)(F)O3)S1` please.
## Result 94

## Task Quote residual activity reported for `COc1ccc(OC)c2c(=S)c3ccccc3[nH]c12` please.
## Result 95

## Task Quote residual activity reported for `Cc1cncc2cccc(S(=O)(=O)N3CCCN(C(=O)CN)C[C@H]3C)c12` please.
## Result 92

## Task Quote residual activity reported for `c1ccc(-c2n[nH]c3c2oc2ccccc23)cc1` please.
## Result 99

## Task Quote residual activity reported for `O=C1Nc2cc(Br)ccc2/C1=C1/Nc2ccccc2/C1=N\O` please.
## Result 86

## Task Quote residual activity reported for `O=Nc1c(-c2c(O)[nH]c3ccccc23)[nH]c2ccccc12` please.
## Result 83

## Task Quote residual activity reported for `Cc1cc2ncc(-c3ccccc3)nc2cc1C` please.
## Result 105

## Task Quote residual activity reported for `Cc1nc2cc3nc(-c4cccs4)cnc3cc2n1C` please.
## Result 103

## Task Quote residual activity reported for `NC(=O)c1ccc2[nH]c(-c3ccc(Oc4ccc(Cl)cc4)cc3)nc2c1` please.
## Result 82

## Task Quote residual activity reported for `Cc1cccc(-c2[nH]c(C(C)(C)C)nc2-c2ccc3c(c2)OCO3)n1` please.
## Result 95

## Task Quote residual activity reported for `C[C@@H](N)[C@H]1CC[C@H](C(=O)Nc2ccncc2)CC1` please.
## Result 102

## Task Quote residual activity reported for `CC(=O)c1ccc(N2CCOCC2)cc1O` please.
## Result 104

## Task Quote residual activity reported for `CO[C@@H]1[C@H](N(C)C(=O)c2ccccc2)C[C@H]2O[C@]1(C)n1c3ccccc3c3c4c(c5c6ccccc6n2c5c31)C(=O)NC4` please.
## Result 86

## Task Quote residual activity reported for `CN(C)CCCn1cc(C2=C(c3c[nH]c4ccccc34)C(=O)NC2=O)c2ccccc21` please.
## Result 105

## Task Quote residual activity reported for `Oc1c2ccccc2c2c3c(cccc13)N=N2` please.
## Result 81

## Task Quote residual activity reported for `CCN(CC)CCCCN1c2ccccc2Oc2ccc(Cl)cc21` please.
## Result 112

## Task Quote residual activity reported for `Cn1cnc2cc3c(Nc4cccc(Br)c4)ncnc3cc21` please.
## Result 109

## Task Quote residual activity reported for `Nc1cccc(-c2cc3c(Oc4cccc(O)c4)ncnc3[nH]2)c1` please.
## Result 71

## Task Quote residual activity reported for `O=c1c2ccccc2[nH]c(=S)n1CCN1CCC(=C(c2ccc(F)cc2)c2ccc(F)cc2)CC1` please.
## Result 106
